Reference for the values: patent US10995068B2

- EXPERIMENT SUMMARY: Blood chemistry of pDKO mice
- Assay type: in vivo
- CONDITION SET: 60 mg/kg, at sacrifice, unit assumed
METRIC NAME: Creatine

Item CCCCCCCCc1ccc([C@H]2CCN[C@@H]2CO)cc1.Cl [Compound 5] : provide Creatine
< 0.2 mg/dL

* * *

- SYSTEM NAME: S1P receptor 1 (Homo sapiens, UniProt P21453)
- Construct: expressed in transfected cells
- Sequence (P21453 whole entry): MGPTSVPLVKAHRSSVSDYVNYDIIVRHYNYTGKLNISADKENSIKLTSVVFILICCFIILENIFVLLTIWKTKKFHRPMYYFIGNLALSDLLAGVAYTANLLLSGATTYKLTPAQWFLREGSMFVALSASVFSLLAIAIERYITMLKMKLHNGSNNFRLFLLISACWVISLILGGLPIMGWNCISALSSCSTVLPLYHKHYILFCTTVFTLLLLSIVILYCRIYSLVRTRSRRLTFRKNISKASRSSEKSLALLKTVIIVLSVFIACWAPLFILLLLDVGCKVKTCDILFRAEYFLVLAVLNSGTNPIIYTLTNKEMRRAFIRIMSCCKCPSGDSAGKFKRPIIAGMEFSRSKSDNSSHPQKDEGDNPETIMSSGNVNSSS
- EXPERIMENT SUMMARY: S1P receptor activation in CHO cells, S1P1
- Format: cell-based
- CONDITION SET: CHO cells over-expressing human S1P1, 10 min stimulation, Western blot
METRIC NAME: activation of S1P receptor 1

These recorded examples may help you get a feel for the data.
- SMILES STRING: "CCCCCCCCc1ccc([C@@H]2CCN[C@H]2COC)cc1.Cl"
  activation of S1P receptor 1: "not able to activate"
- SMILES STRING: "CCCCCCCCc1ccc([C@@H]2CCN[C@H]2CO)cc1.Cl"
  activation of S1P receptor 1: "weakly activated"
- SMILES STRING: "CCCCCCCCc1ccc([C@@H]2CCN[C@H]2C)cc1.Cl"
  activation of S1P receptor 1: "not able to activate"
- SMILES STRING: "CCCCCCCCc1ccc([C@H]2CCN[C@@H]2CO)cc1.Cl"
  activation of S1P receptor 1: "weakly activated"

Now consider the entry below.
Please look at `CCCCCCCCc1ccc([C@H]2CCN[C@@H]2COP(=O)(O)O)cc1` and tell me its recorded activation of S1P receptor 1 on S1P receptor 1 (Homo sapiens, UniProt P21453).
weakly activated

* * *

- Test system: CD98 (4F2hc, SLC3A2)
- EXPERIMENT SUMMARY: Surface CD98 nutrient transporter down-regulation by flow cytometry
- Type: cell-based, murine
- CONDITION SET: FL5.12 cells, surface CD98 at 3 h, flow cytometry; mean ± SEM, n ≥3
This section presents compounds with their documented % CD98 down-regulation values.
Answer with a number only, understood to be in %.

These recorded examples may help you get a feel for the data.
- COMPOUND: "CCCCCCCCCCCCc1ccc(COC2CNC(CO)C2)cc1 (centres unmarked) [Compound 114]"
  SYSTEM NAME: "CD98 (4F2hc, SLC3A2)"
  SCALE UNIT: "%"
  % CD98 down-regulation: 13
- COMPOUND: "CCCCC=Cc1ccc(COC2CNC(CO)C2)cc1 (centres unmarked) [Compound 118]"
  SYSTEM NAME: "CD98 (4F2hc, SLC3A2)"
  SCALE UNIT: "%"
  % CD98 down-regulation: 9
- COMPOUND: "CCCCCCCCc1ccc(COC2CC(CO)N(C(=N)N)C2)cc1 (centres unmarked) [Compound 133]"
  SYSTEM NAME: "CD98 (4F2hc, SLC3A2)"
  SCALE UNIT: "%"
  % CD98 down-regulation: 34
- COMPOUND: "CCCCCCCCCCCCC/C=C/[C@@H](O)[C@H](CO)NC(C)=O [Compound 109, C2-ceramide, reference compound]"
  SYSTEM NAME: "CD98 (4F2hc, SLC3A2)"
  SCALE UNIT: "%"
  % CD98 down-regulation: 47

Item CCCCCCCCc1ccc(COC2CC(CO)N(C(C)=O)C2)cc1 (centres unmarked) [Compound 131] : provide % CD98 down-regulation
37
